# System: human recombinant Aurora A (Homo sapiens (Human))
# Sequence (O14965 whole entry): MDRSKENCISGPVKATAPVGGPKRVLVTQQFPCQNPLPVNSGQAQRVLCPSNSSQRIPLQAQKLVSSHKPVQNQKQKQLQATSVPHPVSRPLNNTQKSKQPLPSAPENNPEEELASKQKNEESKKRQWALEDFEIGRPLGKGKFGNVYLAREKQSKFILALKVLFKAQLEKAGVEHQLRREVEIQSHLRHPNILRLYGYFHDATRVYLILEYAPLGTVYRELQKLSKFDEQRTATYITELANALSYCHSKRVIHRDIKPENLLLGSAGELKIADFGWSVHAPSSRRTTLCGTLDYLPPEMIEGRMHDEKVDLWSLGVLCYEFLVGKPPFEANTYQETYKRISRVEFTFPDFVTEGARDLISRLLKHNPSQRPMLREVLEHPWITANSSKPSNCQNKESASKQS
# Assay details: Aurora A Kinase Biochemical Assay (ADP-Glo)
# Measurement context: ratio of Aurora A IC50 to PLK4 IC50 (selectivity)
Value type: [Aurora A IC50 (nM)]/[PLK4 IC50 (nM)]

>  <Molecule>
Cc1ncc(OC(F)F)c(Nc2n[nH]c3cc([C@@H]4C[C@@]45C(=O)Nc4ccc(F)cc45)ccc23)n1

>  <Value type>
[Aurora A IC50 (nM)]/[PLK4 IC50 (nM)]

>  <Experimental value>
28.3312

$$$$
>  <Molecule>
COc1ccc2c(c1)[C@]1(C[C@H]1c1ccc3c(Nc4cc(C5CC5)nn4C)n[nH]c3c1)C(=O)N2

>  <Value type>
[Aurora A IC50 (nM)]/[PLK4 IC50 (nM)]

>  <Experimental value>
436.427

$$$$
>  <Molecule>
COc1ccc2c(c1)[C@]1(C[C@H]1c1ccc3c(Nc4nc(CCO)nc(N5CCOCC5)c4OC)n[nH]c3c1)C(=O)N2

>  <Value type>
[Aurora A IC50 (nM)]/[PLK4 IC50 (nM)]

>  <Experimental value>
4761.518

$$$$
>  <Molecule>
COc1ccc2c(c1)[C@]1(C[C@H]1c1ccc3c(Nc4ncc(S(=O)(=O)NC5(C)COC5)cc4OC)n[nH]c3c1)C(=O)N2

>  <Value type>
[Aurora A IC50 (nM)]/[PLK4 IC50 (nM)]

>  <Experimental value>
191.7977

$$$$
>  <Molecule>
COc1ccc2c(c1)[C@]1(C[C@H]1c1ccc3c(Nc4ccc(C(=O)NCC5CC5)nc4OC)n[nH]c3c1)C(=O)N2

>  <Value type>
[Aurora A IC50 (nM)]/[PLK4 IC50 (nM)]

>  <Experimental value>
12432.2103

$$$$
>  <Molecule>
COc1ccc2c(c1)[C@]1(C[C@H]1c1ccc3c(Nc4nc(N5CCS(=O)(=O)CC5)ncc4OC)n[nH]c3c1)C(=O)N2

>  <Value type>
[Aurora A IC50 (nM)]/[PLK4 IC50 (nM)]

>  <Experimental value>
129.5378

$$$$
>  <Molecule>
COc1ccc2c(c1)[C@]1(C[C@H]1c1ccc3c(Nc4nc(C5CCOC5)ncc4OC)n[nH]c3c1)C(=O)N2 (single isomer, unassigned) [Example 200]

>  <Value type>
[Aurora A IC50 (nM)]/[PLK4 IC50 (nM)]

>  <Experimental value>
906.0197

$$$$
>  <Molecule>
COc1ccc2c(c1)[C@]1(C[C@H]1c1ccc3c(Nc4ccc(C(=O)NC(CF)CF)nc4OC)n[nH]c3c1)C(=O)N2

>  <Value type>
[Aurora A IC50 (nM)]/[PLK4 IC50 (nM)]

>  <Experimental value>
819.6509

$$$$
>  <Molecule>
COc1ccc2c(c1)[C@]1(C[C@H]1c1ccc3c(Nc4nc(Cl)c(OC)c(N5CCOCC5)n4)n[nH]c3c1)C(=O)N2

>  <Value type>
[Aurora A IC50 (nM)]/[PLK4 IC50 (nM)]

>  <Experimental value>
253.4031

$$$$
>  <Molecule>
COc1ccc2c(c1)[C@]1(C[C@H]1c1ccc3c(Nc4nc(C)ncc4OCC4CC4)n[nH]c3c1)C(=O)N2

>  <Value type>
[Aurora A IC50 (nM)]/[PLK4 IC50 (nM)]

>  <Experimental value>
3512.4078

$$$$
>  <Molecule>
CCOc1cc(S(=O)(=O)CC)cnc1Nc1n[nH]c2cc([C@@H]3C[C@@]34C(=O)Nc3ccc(OC)cc34)ccc12

>  <Value type>
[Aurora A IC50 (nM)]/[PLK4 IC50 (nM)]

>  <Experimental value>
2560.9436

$$$$
>  <Molecule>
COc1ccc2c(c1)[C@]1(C[C@H]1c1ccc3c(Nc4ncnc(N5CCOCC5)c4OC)n[nH]c3c1)C(=O)N2

>  <Value type>
[Aurora A IC50 (nM)]/[PLK4 IC50 (nM)]

>  <Experimental value>
3277.276

$$$$
>  <Molecule>
CCOc1cc(=O)n(C)nc1Nc1n[nH]c2cc([C@@H]3C[C@@]34C(=O)Nc3ccc(OC)cc34)ccc12

>  <Value type>
[Aurora A IC50 (nM)]/[PLK4 IC50 (nM)]

>  <Experimental value>
1120.5641

$$$$

====

# System: human recombinant Aurora B (Homo sapiens (Human), UniProt Q96GD4)
# Sequence (Q96GD4 whole entry): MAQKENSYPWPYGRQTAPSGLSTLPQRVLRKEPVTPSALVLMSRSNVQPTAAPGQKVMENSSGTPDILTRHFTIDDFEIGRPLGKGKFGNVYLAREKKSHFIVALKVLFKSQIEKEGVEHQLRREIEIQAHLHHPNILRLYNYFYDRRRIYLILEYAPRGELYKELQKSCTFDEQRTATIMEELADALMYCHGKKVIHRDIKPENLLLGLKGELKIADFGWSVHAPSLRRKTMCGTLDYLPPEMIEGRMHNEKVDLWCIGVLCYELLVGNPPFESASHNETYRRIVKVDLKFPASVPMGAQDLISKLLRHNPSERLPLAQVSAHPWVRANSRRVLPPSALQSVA
# Assay details: Aurora B Kinase Biochemical Assay (ADP-Glo)
# Measurement context: ratio of Aurora B IC50 to PLK4 IC50 (selectivity)
Answer Not satisfied if [Aurora B IC50 (nM)]/[PLK4 IC50 (nM)] is under 80, and Satisfied if it is 80 or more.

>  <Molecule>
COc1ccc2c(c1)[C@]1(C[C@H]1c1ccc3c(Nc4cc(N5CCC5)ncn4)n[nH]c3c1)C(=O)N2 [Example 45]

>  <System>
human recombinant Aurora B (Homo sapiens (Human), UniProt Q96GD4)

>  <Label>
Not satisfied

$$$$
>  <Molecule>
COc1ccc2c(c1)[C@]1(C[C@H]1c1ccc3c(Nc4nc(C(C)C)nc(N5CCS(=O)(=O)CC5)c4OC)n[nH]c3c1)C(=O)N2 [Example 84]

>  <System>
human recombinant Aurora B (Homo sapiens (Human), UniProt Q96GD4)

>  <Label>
Satisfied

$$$$
>  <Molecule>
COc1ccc2c(c1)[C@]1(C[C@H]1c1ccc3c(Nc4nc(C(C)C)cnc4OC)n[nH]c3c1)C(=O)N2 [Example 83]

>  <System>
human recombinant Aurora B (Homo sapiens (Human), UniProt Q96GD4)

>  <Label>
Satisfied

$$$$
>  <Molecule>
CCOc1nc(S(=O)(=O)N(C)C)ccc1Nc1n[nH]c2cc([C@@H]3C[C@@]34C(=O)Nc3ccc(OC)cc34)ccc12 [Example 223]

>  <System>
human recombinant Aurora B (Homo sapiens (Human), UniProt Q96GD4)

>  <Label>
Satisfied

$$$$
>  <Molecule>
COc1ccc2c(c1)[C@]1(C[C@H]1c1ccc3c(Nc4cnn(C)c4)n[nH]c3c1)C(=O)N2 [Example 65]

>  <System>
human recombinant Aurora B (Homo sapiens (Human), UniProt Q96GD4)

>  <Label>
Not satisfied

$$$$
>  <Molecule>
COc1ccc2c(c1)[C@]1(C[C@H]1c1ccc3c(Nc4ncc(S(=O)(=O)N5CCC5)cc4OC)n[nH]c3c1)C(=O)N2 [Example 268]

>  <System>
human recombinant Aurora B (Homo sapiens (Human), UniProt Q96GD4)

>  <Label>
Satisfied

$$$$

====

# System: human recombinant PLK4 (Homo sapiens (Human), UniProt O00444)
# Sequence (O00444 whole entry): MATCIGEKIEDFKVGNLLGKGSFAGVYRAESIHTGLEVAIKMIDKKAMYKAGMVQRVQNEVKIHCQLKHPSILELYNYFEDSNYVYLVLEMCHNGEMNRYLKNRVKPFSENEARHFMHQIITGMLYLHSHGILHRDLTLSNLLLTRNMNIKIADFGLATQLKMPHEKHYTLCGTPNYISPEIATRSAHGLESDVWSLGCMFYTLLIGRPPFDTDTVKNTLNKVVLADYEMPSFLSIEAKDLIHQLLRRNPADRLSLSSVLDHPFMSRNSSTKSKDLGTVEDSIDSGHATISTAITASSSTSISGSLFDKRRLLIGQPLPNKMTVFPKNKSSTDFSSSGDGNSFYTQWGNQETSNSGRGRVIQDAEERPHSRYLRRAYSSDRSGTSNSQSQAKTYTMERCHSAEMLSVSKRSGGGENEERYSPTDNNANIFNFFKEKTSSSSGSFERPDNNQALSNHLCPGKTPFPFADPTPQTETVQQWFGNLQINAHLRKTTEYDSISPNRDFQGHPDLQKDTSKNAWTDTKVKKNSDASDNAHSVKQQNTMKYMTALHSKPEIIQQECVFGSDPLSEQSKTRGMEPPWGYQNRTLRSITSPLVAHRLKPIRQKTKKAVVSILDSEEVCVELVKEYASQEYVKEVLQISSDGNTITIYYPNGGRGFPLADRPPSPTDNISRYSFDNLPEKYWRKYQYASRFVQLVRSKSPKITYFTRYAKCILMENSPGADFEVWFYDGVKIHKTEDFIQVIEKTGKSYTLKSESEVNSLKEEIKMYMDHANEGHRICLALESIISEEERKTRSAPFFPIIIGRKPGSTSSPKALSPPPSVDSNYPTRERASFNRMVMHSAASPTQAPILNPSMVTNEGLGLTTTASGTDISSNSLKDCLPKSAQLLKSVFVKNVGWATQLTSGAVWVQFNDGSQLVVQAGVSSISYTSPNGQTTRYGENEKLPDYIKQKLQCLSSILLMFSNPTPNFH
# Assay details: PLK4 Biochemical Assay (ADP-Glo)
# Measurement context: 0.5 nM PLK4, 8.0 µM ATP, 4.7 µM MBP, 6 hours at RT
Value type: IC50 (nM)

>  <Smiles data>
COc1ccc2c(c1)[C@]1(C[C@H]1c1ccc3c(Nc4ncc(S(=O)(=O)N5CCCO5)cc4OC)n[nH]c3c1)C(=O)N2

>  <Value type>
IC50

>  <Experimental value>
1.57

$$$$
>  <Smiles data>
COc1ccc2c(c1)[C@]1(C[C@H]1c1ccc3c(Nc4nc(N5CC(F)C5)ncc4OC)n[nH]c3c1)C(=O)N2

>  <Value type>
IC50

>  <Experimental value>
1.92

$$$$
>  <Smiles data>
CCc1cnc(C)nc1Nc1n[nH]c2cc([C@@H]3C[C@@]34C(=O)Nc3ccc(OC)cc34)ccc12

>  <Value type>
IC50

>  <Experimental value>
7.16

$$$$
>  <Smiles data>
COc1ccc2c(c1)[C@]1(C[C@H]1c1ccc3c(Nc4nc(C5CC5)cnc4OC)n[nH]c3c1)C(=O)N2.O=C(O)C(F)(F)F

>  <Value type>
IC50

>  <Experimental value>
2.37

$$$$

====

// values below are reported pIC50
# System: human recombinant PLK4 (Homo sapiens (Human))
# Assay details: PLK4 Biochemical Assay (ADP-Glo)
# Measurement context: 0.5 nM PLK4, 8.0 µM ATP, 4.7 µM MBP, 6 hours at RT
pIC50: −log10 of the molar value.

>  <Molecule>
COc1ccc2c(c1)[C@@]1(C[C@@H]1c1ccc3c(Nc4ncncc4OC)n[nH]c3c1)C(=O)N2 [Example 8]

>  <pIC50>
6.31

$$$$
>  <Molecule>
Cc1ncc(OC(F)F)c(Nc2n[nH]c3cc([C@@H]4C[C@@]45C(=O)Nc4ccc(F)cc45)ccc23)n1 [Example 135]

>  <pIC50>
7.15

$$$$
>  <Molecule>
COc1ccc2c(c1)[C@]1(C[C@H]1c1ccc3c(Nc4nc(N5CCCC5)ncc4OC)n[nH]c3c1)C(=O)N2 [Example 167]

>  <pIC50>
8.93

$$$$
>  <Molecule>
COc1ccc2c(c1)[C@]1(C[C@H]1c1ccc3c(Nc4cnn(C)c4)n[nH]c3c1)C(=O)N2 [Example 65]

>  <pIC50>
7.35

$$$$
>  <Molecule>
COc1ccc2c(c1)[C@]1(C[C@H]1c1ccc3c(Nc4nc(N5CCC(F)(F)CC5)ncc4OC)n[nH]c3c1)C(=O)N2 [Example 189]

>  <pIC50>
8.98

$$$$
>  <Molecule>
COc1ccc2c(c1)[C@]1(C[C@H]1c1ccc3c(Nc4ccc(C(=O)N(C)OC)nc4OC)n[nH]c3c1)C(=O)N2 [Example 218]

>  <pIC50>
9.02

$$$$
>  <Molecule>
CNC(=O)c1ccc(Nc2n[nH]c3cc([C@@H]4C[C@@]45C(=O)Nc4ccc(OC)cc45)ccc23)c(OC)n1 [Example 191]

>  <pIC50>
8.64

$$$$
>  <Molecule>
CCOc1cc(S(C)(=O)=O)cnc1Nc1n[nH]c2cc([C@@H]3C[C@@]34C(=O)Nc3ccc(OC)cc34)ccc12 [Example 208]

>  <pIC50>
9.05

$$$$
>  <Molecule>
COc1ccc2c(c1)[C@]1(C[C@H]1c1ccc3c(Nc4nc(N5CCOCC5)cnc4OC)n[nH]c3c1)C(=O)N2 [Example 99]

>  <pIC50>
8.24

$$$$
>  <Molecule>
COc1ccc2c(c1)[C@]1(C[C@H]1c1ccc3c(Nc4nc(C(C)C)ncc4OC)n[nH]c3c1)C(=O)N2 [Example 125]

>  <pIC50>
9.08

$$$$
>  <Molecule>
CCS(=O)(=O)c1cnc(Nc2n[nH]c3cc([C@@H]4C[C@@]45C(=O)Nc4ccc(OC)cc45)ccc23)c(OC)c1 [Example 228]

>  <pIC50>
8.87

$$$$
>  <Molecule>
COc1ccc2c(c1)[C@]1(C[C@H]1c1ccc3c(Nc4ncnc(N5CCOCC5)c4OC)n[nH]c3c1)C(=O)N2 [Example 11]

>  <pIC50>
8.31

$$$$
>  <Molecule>
COc1ccc2c(c1)[C@]1(C[C@H]1c1ccc3c(Nc4nc(C(C)C)ncc4OC(F)F)n[nH]c3c1)C(=O)N2 [Example 128]

>  <pIC50>
8.54

$$$$
>  <Molecule>
COc1ccc2c(c1)[C@]1(C[C@H]1c1ccc3c(Nc4ncc(S(=O)(=O)C5CC5)cc4OC)n[nH]c3c1)C(=O)N2 [Example 258]

>  <pIC50>
8.85

$$$$

Cited source: patent US20230365537A1
